pIC50: −log10 of the molar value.
Entries below carry reported pIC50 on catalytic domain of human Bub1 (amino acids 704-1085) (Homo sapiens, UniProt O43683).
Sequence (O43683 704-1085): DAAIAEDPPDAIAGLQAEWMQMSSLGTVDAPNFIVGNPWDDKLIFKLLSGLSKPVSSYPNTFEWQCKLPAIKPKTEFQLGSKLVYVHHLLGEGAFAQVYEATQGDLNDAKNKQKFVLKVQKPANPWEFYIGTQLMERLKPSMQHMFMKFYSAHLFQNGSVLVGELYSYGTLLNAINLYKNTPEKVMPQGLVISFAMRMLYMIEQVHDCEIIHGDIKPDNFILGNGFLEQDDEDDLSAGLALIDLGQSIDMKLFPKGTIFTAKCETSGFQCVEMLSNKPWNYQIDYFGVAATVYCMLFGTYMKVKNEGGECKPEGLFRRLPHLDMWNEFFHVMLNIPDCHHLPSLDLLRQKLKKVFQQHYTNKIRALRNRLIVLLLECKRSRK
Measurement label: pIC50

>>> test_result("Cc1nsc(Nc2ccc(C#N)cn2)c1C(=O)Nc1ccc(OC2CCCN(CC(F)(F)F)C2)nc1 (centres unmarked)")
"≤ 4.70"
>>> test_result("Cc1nsc(Nc2cc(C#N)ccn2)c1C(=O)Nc1ccc(OCCCNC(=O)OC(C)(C)C)nc1")
"≤ 4.70"
>>> test_result("Cc1nsc(Nc2cnc(C(F)(F)F)cn2)c1C(=O)Nc1ccc(OCC2CCN(CCC(F)(F)F)C2)nc1 (centres unmarked)")
"≤ 4.70"
>>> test_result("Cc1nsc(Nc2ccc(C#N)cn2)c1C(=O)Nc1cccc(C(=O)OC(C)(C)C)c1")
"< 4.70"
>>> test_result("Cc1nsc(Nc2cnc3ccccc3n2)c1C(=O)Nc1cccc(NS(=O)(=O)C2CN(CC(F)(F)F)C2)c1")
"< 4.70"
>>> test_result("Cc1nsc(Nc2cnc(C(F)(F)F)cn2)c1C(=O)Nc1ccc(OCC2CCN(CC(F)F)CC2(F)F)nc1 (centres unmarked)")
"< 4.70"
>>> test_result("Cc1nsc(Nc2cnc(C(F)(F)F)cn2)c1C(=O)Nc1ccc(C2CCN(CC(F)F)CC2)nc1")
"< 4.70"
>>> test_result("Cc1nsc(Nc2cnc3ccccc3n2)c1C(=O)Nc1cccc(C(=O)N2CCNCC2)c1")
5.12
